Protein target, amino acids: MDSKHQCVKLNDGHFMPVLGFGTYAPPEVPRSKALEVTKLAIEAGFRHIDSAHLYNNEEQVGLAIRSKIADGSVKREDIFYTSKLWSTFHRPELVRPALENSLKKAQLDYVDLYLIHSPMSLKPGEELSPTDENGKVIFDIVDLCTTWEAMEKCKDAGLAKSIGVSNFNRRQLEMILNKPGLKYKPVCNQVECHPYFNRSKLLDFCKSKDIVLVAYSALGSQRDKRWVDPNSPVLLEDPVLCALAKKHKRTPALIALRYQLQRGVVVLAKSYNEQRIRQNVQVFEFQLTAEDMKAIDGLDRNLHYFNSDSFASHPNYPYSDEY
Measure Name: pKd
One number for each entry, as −log10 of the molar value.

Consider the molecule NC(=O)c1ccc[n+]([C@@H]2O[C@H](COP(=O)([O-])OP(=O)(O)OC[C@H]3O[C@@H](n4cnc5c(N)ncnc54)[C@H](OP(=O)(O)O)[C@@H]3O)[C@@H](O)[C@H]2O)c1 [NADP+] . State its measured pKd. 6.96

###

# Tgt: AKR1C3 H5Q (Homo sapiens, UniProt P42330, H5Q)
# Sequence (P42330 whole entry H5Q): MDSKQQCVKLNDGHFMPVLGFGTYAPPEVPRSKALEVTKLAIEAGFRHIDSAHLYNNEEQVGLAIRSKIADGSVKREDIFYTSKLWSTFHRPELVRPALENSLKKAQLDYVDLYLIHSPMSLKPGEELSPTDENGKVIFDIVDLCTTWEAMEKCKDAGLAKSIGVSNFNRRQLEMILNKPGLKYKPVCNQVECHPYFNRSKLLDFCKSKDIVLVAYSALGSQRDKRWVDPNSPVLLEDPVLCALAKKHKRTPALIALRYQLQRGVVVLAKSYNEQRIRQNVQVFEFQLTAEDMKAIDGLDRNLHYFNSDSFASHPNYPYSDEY
# Assay Explanation: Kd for NAD
# Experimental Context: read-out: Kd NADP+, 0.5 μM protein, pH 7.0, 25 °C, Morrison equation
Measure Name: Kd (µM)
Give bare numbers, in µM.

Consider the molecule NC(=O)c1ccc[n+]([C@@H]2O[C@H](COP(=O)([O-])OP(=O)(O)OC[C@H]3O[C@@H](n4cnc5c(N)ncnc54)[C@H](OP(=O)(O)O)[C@@H]3O)[C@@H](O)[C@H]2O)c1 [NADP+] . State its measured Kd. 0.12
